Value source: patent US12528767B2

Assay target: Full length Human HDAC6 (Homo sapiens, UniProt Q9UBN7)
Measured IC50 values are reported for all entries that follow.

O=C(NO)c1cc(F)c2c(c1)CCN(CC1CCC1)C2 = 1 to 100 nM
O=C(NO)c1ccc2c(c1)CN1CCCCN1C2 = 100 to 1000 nM
O=C(NO)c1cc(F)c2c(c1)CN(CC1COC1)CC2 = 100 to 1000 nM

Record request: IC50 value, item O=C(NO)c1ccc(CN2C3CCCC2COC3)c(F)c1
1 to 100 nM

Dear colleague, I am looking for the recorded IC50 of the following compound: O=C(NO)c1ccc(CN2C3CCCC2CC3)c(F)c1
100 to 1000 nM

Dear colleague, I am looking for the recorded IC50 of the following compound: O=C(NO)c1cc(F)c2c(c1)CCN(CC(F)(F)F)C2
1 to 100 nM

Fill in: IC50 of O=C(NO)c1cc(F)c2c(c1)CCN1CCCC[C@@H]21 (single isomer, unassigned) is ___
1 to 100 nM

Any idea what its IC50 is? The compound is O=C(NO)c1ccc(CN2CCC3(CCCCC3)CC2)c(F)c1
100 to 1000 nM

Could you share which IC50 value was measured for O=C(NO)c1ccc2c(c1)CCN(CC13CC4CC(CC(C4)C1)C3)C2 ?
1 to 100 nM

* * *

Assay target: Full length Human HDAC8 (Homo sapiens, UniProt Q9BY41)
Sequence (Q9BY41 whole entry): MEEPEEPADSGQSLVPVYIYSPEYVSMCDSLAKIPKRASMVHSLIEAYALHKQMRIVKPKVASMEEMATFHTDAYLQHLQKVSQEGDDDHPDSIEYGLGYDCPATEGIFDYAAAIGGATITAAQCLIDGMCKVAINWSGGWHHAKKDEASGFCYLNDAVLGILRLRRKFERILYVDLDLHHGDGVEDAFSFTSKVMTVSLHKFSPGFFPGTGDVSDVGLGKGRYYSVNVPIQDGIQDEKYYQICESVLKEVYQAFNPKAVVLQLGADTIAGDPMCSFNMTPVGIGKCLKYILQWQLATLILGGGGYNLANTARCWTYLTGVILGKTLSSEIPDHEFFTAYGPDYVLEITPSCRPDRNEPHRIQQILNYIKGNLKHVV
Below: a set of entries, each annotated with reported IC50.

Before answering, review these 4 worked examples.
O=C(NO)c1ccc(CN2C3CCCC2COC3)c(F)c1 = 0.1 to 1 µM
O=C1CC2CCC(C1)N2Cc1ccc(C(=O)NO)cc1F = 0.1 to 1 µM
CC1(CN2CCc3cc(C(=O)NO)cc(F)c3C2)CC1 = 10 to 100 µM
O=C(NO)c1cc(F)c(CN2CCC3(CCCCC3)C2)cc1F = 1 to 10 µM

Here is another compound to look at.
Missing value: IC50, Full length Human HDAC8 (Homo sapiens, UniProt Q9BY41), entry O=C(NO)c1cc(F)c2c(c1)CCN(C1CC3(COC3)C1)C2 . Fill in?
10 to 100 µM

* * *

Form field: Selectivity (6 v 8) (fold) (one value per entry).
Assay target: UniProt Q9UBN7
Measurement parameters: ratio of HDAC8 IC50/HDAC6 IC50; Table 1, number
Please reply with the bare figure in fold and do not write the unit itself.

O=C(NO)c1ccc(CN2CCC3(C2)C2CC4CC(C2)CC3C4)c(F)c1 (centres unmarked) = 0.4
CC1(C)C[C@H]2Cc3cc(C(=O)NO)cc(F)c3CN2C1 (single isomer, unassigned) = 82
O=C(NO)c1ccc2c(c1)Cn1cccc1-2 = 14
O=C(NO)c1cc(F)c(CN2C3CCC2COC3)cc1F = 45.5

Now consider the entry below.
Which Selectivity (6 v 8) (fold) value belongs to O=C(NO)c1ccc2c(c1)CN1CCCC[C@H]1C2 (single isomer, unassigned) ?
26.7

* * *

Experimental details: in vitro
Measurement parameters: human
Result type: viability at 4 h, 30 µM (%)
Answer with a number only, understood to be in %.

What does the data say about its viability at 4 h, 30 µM? Entry: O=C(CCCCCCC(=O)Nc1ccccc1)NO
117

* * *

Full length Human HDAC2 (Homo sapiens) IC50 data
Sequence (Q92769 whole entry): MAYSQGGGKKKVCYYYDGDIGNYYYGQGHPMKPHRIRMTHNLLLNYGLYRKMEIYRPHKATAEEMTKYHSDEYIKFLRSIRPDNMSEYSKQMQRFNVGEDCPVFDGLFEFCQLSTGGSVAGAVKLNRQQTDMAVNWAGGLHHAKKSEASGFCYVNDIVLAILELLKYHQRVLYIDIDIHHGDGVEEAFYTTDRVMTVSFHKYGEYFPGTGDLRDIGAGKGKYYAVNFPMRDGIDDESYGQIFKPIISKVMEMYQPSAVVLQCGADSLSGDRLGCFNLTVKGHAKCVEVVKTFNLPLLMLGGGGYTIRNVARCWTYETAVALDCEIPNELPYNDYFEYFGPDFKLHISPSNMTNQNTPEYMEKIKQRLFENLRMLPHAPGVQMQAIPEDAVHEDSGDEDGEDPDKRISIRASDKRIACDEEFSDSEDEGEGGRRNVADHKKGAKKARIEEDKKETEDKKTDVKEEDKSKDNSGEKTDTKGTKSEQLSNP

Consider the following illustrative entries.
O=C(NO)c1cc(F)c2c(c1)CCN(C1CC3(CCCCC3)C1)C2 = 10 to 100 µM
O=C(NO)c1ccc(CN2C[C@@H]3CC[C@H]2CO3)c(F)c1 (single isomer, unassigned) = > 100 µM
O=C(NO)c1ccc(CN2CC3CCC2CO3)c(F)c1 (stereo not shown) = 10 to 100 µM
O=C(NO)c1cc(F)c2c(c1)C[C@H]1CCCCN1C2 (single isomer, unassigned) = > 100 µM
O=C(NO)c1cc(F)c2c(c1)CCN(CC13CC4CC(CC(C4)C1)C3)C2 = 10 to 100 µM
O=C(NO)c1cc(F)c2c(c1)CCN1CCC[C@@H]21 (single isomer, unassigned) = 10 to 100 µM

Continue with the compound presented below.
Request: IC50, test system Full length Human HDAC2 (Homo sapiens), entry O=C(NO)c1ccc(CN2C[C@H]3CC[C@@H]2CO3)c(F)c1 (single isomer, unassigned)
10 to 100 µM

* * *

Assay target: Full length Human HDAC6 (Homo sapiens, UniProt Q9UBN7)
Measurement parameters: read-out: In vitro enzymatic IC50, HDAC Paralog 6; Table 2
Result type: IC50

# example entries with known answers
O=C(NO)c1cc(F)c2c(c1)CCN(CC1CCCCC1)C2 = 1 to 100 nM
O=C(NO)c1ccc2c(c1)CN1CCCCN1C2 = 100 to 1000 nM
O=C(NO)c1ccc(CN2CC3CCC2CO3)c(F)c1 (centres unmarked) = 1 to 100 nM

Suppose we examine the molecule O=C(NO)c1ccc(CN2CC3CCC(C2)O3)c(F)c1 ; what IC50 value has been reported?
1 to 100 nM

Using the record for O=C(NO)c1cc(F)c2c(c1)CCN(Cc1ccccc1)C2 , report its IC50.
1 to 100 nM

* * *

Experimental details: In vivo assessment of brain penetration in mice (IV 1 mg/kg, plasma and brain levels)
Measurement parameters: mouse, BL/6 mice, plasma, 60 min, read-out: Mouse Plasma Conc (μM) at 60 min
# Lookup of reported concentration at 60 min keyed by entry
# number only, unit µM dropped from output

O=C(NO)c1ccc2c(c1)C[C@@H]1CCCN1C2 (single isomer, unassigned) = 0.01

So what does the record say about concentration at 60 min for O=C(NO)c1cc(F)c2c(c1)CN(CC13C4C5C6C4C1C6C53)CC2 (stereo not drawn) ?
0.02

Would you kindly share the measured concentration at 60 min for O=C(NO)c1ccc(CN2CCc3c([nH]c4ccccc34)C2)c(F)c1 ?
0.05

* * *

The entries below are paired with their reported Selectivity (6 v 8) (fold).
Assay target: Full length Human HDAC6 (Homo sapiens)
Sequence (Q9UBN7 1-1215): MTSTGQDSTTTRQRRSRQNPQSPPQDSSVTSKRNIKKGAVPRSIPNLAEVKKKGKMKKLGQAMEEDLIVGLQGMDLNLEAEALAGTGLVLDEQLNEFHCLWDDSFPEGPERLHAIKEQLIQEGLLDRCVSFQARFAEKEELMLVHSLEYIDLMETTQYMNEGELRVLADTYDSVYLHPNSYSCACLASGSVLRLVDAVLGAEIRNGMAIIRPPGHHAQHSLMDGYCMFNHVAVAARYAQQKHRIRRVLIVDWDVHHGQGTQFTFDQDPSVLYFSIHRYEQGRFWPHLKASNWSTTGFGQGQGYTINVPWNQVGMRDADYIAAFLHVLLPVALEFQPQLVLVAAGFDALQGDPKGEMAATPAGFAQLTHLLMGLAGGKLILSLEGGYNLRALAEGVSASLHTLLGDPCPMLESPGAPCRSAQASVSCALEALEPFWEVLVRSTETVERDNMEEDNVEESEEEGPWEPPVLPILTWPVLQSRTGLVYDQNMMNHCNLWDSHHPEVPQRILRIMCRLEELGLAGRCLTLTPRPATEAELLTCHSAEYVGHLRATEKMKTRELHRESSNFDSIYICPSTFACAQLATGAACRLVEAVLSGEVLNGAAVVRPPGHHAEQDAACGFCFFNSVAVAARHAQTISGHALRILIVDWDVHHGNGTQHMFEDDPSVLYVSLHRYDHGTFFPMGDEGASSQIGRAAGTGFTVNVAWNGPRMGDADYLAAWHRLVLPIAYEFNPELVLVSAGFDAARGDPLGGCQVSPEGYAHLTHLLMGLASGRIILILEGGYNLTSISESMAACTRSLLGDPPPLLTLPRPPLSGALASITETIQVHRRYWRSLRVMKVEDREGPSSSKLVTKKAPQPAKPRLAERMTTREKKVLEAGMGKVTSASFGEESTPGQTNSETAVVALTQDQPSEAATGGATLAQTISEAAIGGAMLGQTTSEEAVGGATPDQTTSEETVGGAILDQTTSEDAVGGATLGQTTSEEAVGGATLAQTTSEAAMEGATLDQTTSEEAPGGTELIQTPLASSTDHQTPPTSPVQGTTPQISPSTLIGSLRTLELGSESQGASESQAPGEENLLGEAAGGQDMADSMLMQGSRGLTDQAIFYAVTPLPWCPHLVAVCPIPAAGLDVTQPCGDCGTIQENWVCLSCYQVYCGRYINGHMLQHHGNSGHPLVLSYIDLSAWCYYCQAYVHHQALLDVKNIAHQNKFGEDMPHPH
Measurement parameters: ratio of HDAC8 IC50/HDAC6 IC50; Table 1, number

A selection of reference data follows.
O=C(NO)c1ccc2c(c1)CN1CCC[C@@H]21 (single isomer, unassigned) = 15 fold
O=C(NO)c1cc(F)c2c(c1)CN(CC13CC4CC(CC(C4)O1)C3)C2 = 168.4 fold

Next item in the queue.
For Full length Human HDAC6 (Homo sapiens), provide Selectivity (6 v 8) (fold) of O=C(NO)c1ccc(CN2CCC3(CCCC3)C2)c(F)c1 please.
35.8 fold
